Data provenance: ChEMBL document CHEMBL1145777

Assignment: determine reported pKi for the given compounds.
# pKi is unitless: minus log10 of the molar concentration; print number only

Challenge: For Mu-type opioid receptor (Cavia porcellus, UniProt P97266), provide pKi of CC[C@@]12CCN(CC3CC3)C(C(=O)c3ccc(N)cc31)[C@@H]2C (single isomer, unassigned; (+)) please.
Response given: 7.77

Challenge: For Mu-type opioid receptor (Cavia porcellus, UniProt P97266), provide pKi of C[C@H]1C2Cc3ccc(Nc4ccc(Cl)cc4)cc3[C@@]1(C)CCN2CC1CC1 please.
Response given: 8.52

Challenge: For Mu-type opioid receptor (Cavia porcellus, UniProt P97266), provide pKi of C[C@H]1[C@H]2Cc3ccc(Nc4ccccc4)cc3[C@@]1(C)CCN2C[C@@H]1CCCO1 please.
Response given: 8.55

Challenge: For Mu-type opioid receptor (Cavia porcellus, UniProt P97266), provide pKi of C[C@H]1C2Cc3ccc(Nc4ccccn4)cc3[C@@]1(C)CCN2CC1CC1 please.
Response given: 8.38

Challenge: For Mu-type opioid receptor (Cavia porcellus, UniProt P97266), provide pKi of COc1ccccc1Nc1ccc2c(c1)[C@@]1(C)CCN(CC3CC3)C(C2)[C@@H]1C please.
Response given: 8.07

Challenge: For Mu-type opioid receptor (Cavia porcellus, UniProt P97266), provide pKi of CC[C@@]12CCN(CC3CC3)C(C(=O)c3ccc(O)cc31)[C@@H]2C (single isomer, unassigned; (+)) [ETHYLKETOCYCLAZOCINE] please.
Response given: 6.49

Challenge: For Mu-type opioid receptor (Cavia porcellus, UniProt P97266), provide pKi of C[C@@H]1[C@@H]2Cc3ccc(N)cc3[C@]1(C)CCN2CC1CC1 please.
Response given: 6.11

Challenge: For Mu-type opioid receptor (Cavia porcellus, UniProt P97266), provide pKi of C[C@H]1[C@H]2Cc3ccc(N)cc3[C@@]1(C)CCN2C[C@@H]1CCCO1 please.
Response given: 7.85

Challenge: For Mu-type opioid receptor (Cavia porcellus, UniProt P97266), provide pKi of COc1ccc(Nc2ccc3c(c2)[C@@]2(C)CCN(CC4CC4)C(C3)[C@@H]2C)cc1 please.
Response given: 9.33

Challenge: For Mu-type opioid receptor (Cavia porcellus, UniProt P97266), provide pKi of Cc1ccc(Nc2ccc3c(c2)[C@@]2(C)CCN(CC4CC4)C(C3)[C@@H]2C)cc1 please.
Response given: 9.04

Challenge: For Mu-type opioid receptor (Cavia porcellus, UniProt P97266), provide pKi of COc1ccc(CNc2ccc3c(c2)[C@@]2(C)CCN(CC4CC4)C(C3)[C@@H]2C)cc1 please.
Response given: 8.11

Challenge: For Mu-type opioid receptor (Cavia porcellus, UniProt P97266), provide pKi of C[C@H]1C2Cc3ccc(N(C)C)cc3[C@@]1(C)CCN2CC1CC1 (single isomer, unassigned; (+)) please.
Response given: 4.30

---

Assignment: determine reported Emax for the given molecules.
Target: Kappa-type opioid receptor (Homo sapiens)
Assay: Incorporation of [35S]GTP-gamma-S, into CHO membranes expressing human Opioid receptor kappa 1
Assay type: functional
Record the result as number plus unit.

Challenge: // lookup Emax for C[C@H]1[C@H]2Cc3ccc(N)cc3[C@@]1(C)CCN2CC1CC1
Response given: 80%

Challenge: // lookup Emax for CC[C@@]12CCN(CC3CC3)C(C(=O)c3ccc(Nc4ccccc4)cc31)[C@@H]2C
Response given: 110%

Challenge: // lookup Emax for C[C@H]1C2C(=O)c3ccc(N)cc3[C@@]1(C)CCN2CC1CC1
Response given: 70%

Challenge: // lookup Emax for C[C@H]1[C@H]2Cc3ccc(O)cc3[C@]1(C)CCN2CC1CC1 (stereo in doubt; (-)2)
Response given: 100%

Challenge: // lookup Emax for CC[C@@]12CCN(CC3CC3)C(C(=O)c3ccc(N)cc31)[C@@H]2C (single isomer, unassigned; (-))
Response given: 110%

Challenge: // lookup Emax for CC[C@@]12CCN(CC3CC3)C(C(=O)c3ccc(N)cc31)[C@@H]2C (stereo in doubt; 44)
Response given: 100%

Challenge: // lookup Emax for C[C@H]1C2C(=O)c3ccc(O)cc3[C@@]1(C)CCN2CC1CC1
Response given: 80%

Challenge: // lookup Emax for CC[C@@]12CCN(CC3CC3)C(C(=O)c3ccc(O)cc31)[C@@H]2C (single isomer, unassigned; (-))
Response given: 170%

Challenge: // lookup Emax for C[C@H]1[C@H]2Cc3ccc(O)cc3[C@@]1(C)CCN2C[C@@H]1CCCO1
Response given: 70%

Challenge: // lookup Emax for C[C@H]1[C@H]2Cc3ccc(Nc4ccccc4)cc3[C@@]1(C)CCN2CC1CC1
Response given: 120%

Challenge: // lookup Emax for C[C@H]1C2Cc3ccc(Nc4cccnc4)cc3[C@@]1(C)CCN2CC1CC1
Response given: 90%

Challenge: // lookup Emax for C[C@H]1[C@H]2Cc3ccc(O)cc3[C@]1(C)CCN2CC1CC1 (stereo in doubt)
Response given: 90%

Challenge: // lookup Emax for C[C@H]1[C@H]2Cc3ccc(N)cc3[C@@]1(C)CCN2C[C@@H]1CCCO1
Response given: 330%

---

Assignment: determine reported EC50 for the given compounds.
Molecular target: Kappa-type opioid receptor (Homo sapiens, UniProt P41145)
Sequence (P41145 whole entry): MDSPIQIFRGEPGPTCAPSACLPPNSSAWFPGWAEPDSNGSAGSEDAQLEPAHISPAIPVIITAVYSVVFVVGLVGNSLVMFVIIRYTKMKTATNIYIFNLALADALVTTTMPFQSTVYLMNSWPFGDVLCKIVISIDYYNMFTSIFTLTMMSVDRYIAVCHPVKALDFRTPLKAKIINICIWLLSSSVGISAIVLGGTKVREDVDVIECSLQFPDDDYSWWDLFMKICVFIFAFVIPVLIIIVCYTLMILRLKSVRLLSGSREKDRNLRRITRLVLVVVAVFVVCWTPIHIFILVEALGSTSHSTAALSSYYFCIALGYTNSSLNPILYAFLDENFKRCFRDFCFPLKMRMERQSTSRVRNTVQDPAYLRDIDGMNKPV
Test: Incorporation of [35S]GTP-gamma-S, into CHO membranes expressing human Opioid receptor kappa 1
Record the result as number plus unit.

Challenge: // lookup EC50 for C[C@H]1[C@H]2Cc3ccc(Nc4ccccc4)cc3[C@@]1(C)CCN2CC1CC1
Response given: 3.8 nM

Challenge: // lookup EC50 for C[C@H]1[C@H]2Cc3ccc(O)cc3[C@@]1(C)CCN2C[C@@H]1CCCO1
Response given: 4 nM

Challenge: // lookup EC50 for C[C@H]1C2C(=O)c3ccc(O)cc3[C@@]1(C)CCN2CC1CC1
Response given: 3.3 nM

Challenge: // lookup EC50 for C[C@H]1[C@H]2Cc3ccc(N)cc3[C@@]1(C)CCN2C[C@@H]1CCCO1
Response given: 70 nM

---

Target: UniProt:P41145
Assay: Incorporation of [35S]GTP-gamma-S, into CHO membranes expressing human Opioid receptor kappa 1
So basically: is EC50 under 6 nM? Then Met. Not under? Then Not met.

Challenge: Determine if C[C@H]1[C@H]2Cc3ccc(N)cc3[C@@]1(C)CCN2CC1CC1 shows EC50 strictly lower than 6 nM.
Response given: Not met

Challenge: Determine if CC[C@@]12CCN(CC3CC3)C(C(=O)c3ccc(N)cc31)[C@@H]2C (stereo in doubt; 44) shows EC50 strictly lower than 6 nM.
Response given: Met

Challenge: Determine if C[C@H]1C2Cc3ccc(Nc4cccnc4)cc3[C@@]1(C)CCN2CC1CC1 shows EC50 strictly lower than 6 nM.
Response given: Not met

Challenge: Determine if CC[C@@]12CCN(CC3CC3)C(C(=O)c3ccc(N)cc31)[C@@H]2C (single isomer, unassigned; (-)) shows EC50 strictly lower than 6 nM.
Response given: Met

Challenge: Determine if C[C@H]1C2C(=O)c3ccc(N)cc3[C@@]1(C)CCN2CC1CC1 shows EC50 strictly lower than 6 nM.
Response given: Not met

Challenge: Determine if C[C@H]1[C@H]2Cc3ccc(O)cc3[C@]1(C)CCN2CC1CC1 (stereo in doubt; (-)2) [CYCLAZOCINE] shows EC50 strictly lower than 6 nM.
Response given: Met

Challenge: Determine if C[C@H]1[C@H]2Cc3ccc(O)cc3[C@]1(C)CCN2CC1CC1 (stereo in doubt) [CYCLAZOCINE] shows EC50 strictly lower than 6 nM.
Response given: Met

---

endpoint_label: Ki

Challenge: For UniProt:P97266, provide Ki of C[C@H]1C2Cc3ccc(N=C(c4ccccc4)c4ccccc4)cc3[C@@]1(C)CCN2CC1CC1 please.
Response given: 360 nM

Challenge: For UniProt:P97266, provide Ki of C[C@H]1[C@H]2Cc3ccc(O)cc3[C@@]1(C)CCN2C[C@@H]1CCCO1 please.
Response given: 0.17 nM

Challenge: For UniProt:P97266, provide Ki of C[C@H]1C2Cc3ccc(Nc4ccc(N(C)C)cc4)cc3[C@@]1(C)CCN2CC1CC1 please.
Response given: 70 nM

Challenge: For UniProt:P97266, provide Ki of C[C@H]1C2Cc3ccc(NCc4ccc(Cl)cc4)cc3[C@@]1(C)CCN2CC1CC1 please.
Response given: 8.8 nM

Challenge: For UniProt:P97266, provide Ki of C[C@H]1C2Cc3ccc(Nc4ccc(C(C)(C)C)cc4)cc3[C@@]1(C)CCN2CC1CC1 please.
Response given: 18 nM

Challenge: For UniProt:P97266, provide Ki of C[C@H]1C2Cc3ccc(Nc4ccc(Cl)c(Cl)c4)cc3[C@@]1(C)CCN2CC1CC1 please.
Response given: 8.4 nM

Challenge: For UniProt:P97266, provide Ki of C[C@H]1C2Cc3ccc(Nc4ccncc4)cc3[C@@]1(C)CCN2CC1CC1 please.
Response given: 18 nM
